# maps each entry to its IC50
- Tested System: human IDO (IDO1-expressing HEK293 cells) (Homo sapiens)
- Construct: expressed in transfected cells
- Sequence (P14902 whole entry): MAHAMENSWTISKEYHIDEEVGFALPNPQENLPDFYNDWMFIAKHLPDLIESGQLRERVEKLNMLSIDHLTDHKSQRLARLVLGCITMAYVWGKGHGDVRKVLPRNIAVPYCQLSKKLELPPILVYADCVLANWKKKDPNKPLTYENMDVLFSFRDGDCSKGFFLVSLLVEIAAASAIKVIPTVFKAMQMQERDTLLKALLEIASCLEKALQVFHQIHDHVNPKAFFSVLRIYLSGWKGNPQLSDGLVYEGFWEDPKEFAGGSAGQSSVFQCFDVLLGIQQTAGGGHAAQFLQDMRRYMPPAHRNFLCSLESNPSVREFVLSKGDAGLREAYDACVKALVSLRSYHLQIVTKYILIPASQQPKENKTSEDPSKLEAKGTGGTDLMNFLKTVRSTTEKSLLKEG
- Assay Overview: Cell based kynurenine assay, IDO1-expressing HEK293 cell clones
- Assay Conditions: IDO1-expressing HEK293 cells, 24 hours incubation; geometric mean; read-out: HEK293 IDO1 Kynurenine GMean IC50 (μM) (Cellular Assay)

Please review the entries below; each comes with its answer.
[
  {
    "Compound": "CC(C)S(=O)(=O)N1CCC(C(C)(C)C(O)c2cc(Cl)cc3cn[nH]c23)CC1 (stereo not drawn) [Compound P-0307]",
    "IC50": "0.0001 to 10 µM"
  },
  {
    "Compound": "NS(=O)(=O)N1CCC(C(F)(F)C(O)c2cc(Cl)cc3cn[nH]c23)CC1 (stereo not drawn) [Compound P-0345]",
    "IC50": "0.0001 to 10 µM"
  }
]

Please turn your attention to the following entry.
Exercise: Hi! What's the reported IC50 for OC(c1c(F)c(Cl)cc2cn[nH]c12)C1CC2CCC1C2 (stereo not drawn) [Compound P-0258] on human IDO (IDO1-expressing HEK293 cells) (Homo sapiens)?
Solution: 0.0001 to 10 µM

* * *

The entries below are paired with their reported IC50.
- Tested System: human TDO (TDO-expressing HEK293 cells) (Homo sapiens, UniProt P48775)
- Construct: expressed in transfected cells
- Sequence (P48775 whole entry): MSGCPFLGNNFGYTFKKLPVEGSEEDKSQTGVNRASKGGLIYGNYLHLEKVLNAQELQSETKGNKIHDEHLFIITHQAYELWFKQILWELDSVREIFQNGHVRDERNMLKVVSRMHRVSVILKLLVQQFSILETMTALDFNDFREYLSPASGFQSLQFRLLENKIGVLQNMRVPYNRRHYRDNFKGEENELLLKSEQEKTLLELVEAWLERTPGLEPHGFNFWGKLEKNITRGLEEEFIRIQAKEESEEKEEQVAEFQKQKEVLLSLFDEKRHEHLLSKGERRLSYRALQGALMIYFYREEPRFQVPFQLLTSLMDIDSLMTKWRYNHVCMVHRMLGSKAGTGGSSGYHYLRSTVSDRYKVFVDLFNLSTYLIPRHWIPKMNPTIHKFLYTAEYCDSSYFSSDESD
- Assay Overview: Cell based kynurenine assay, TDO-expressing HEK293 cell clones
- Assay Conditions: TDO-expressing HEK293 cells, 24 hours incubation; geometric mean; read-out: HEK293 TDO Kynurenine GMean IC50 (μM) (Cellular Assay)

[
  {
    "Molecule": "CC(C)(C1CCN(S(=O)(=O)C2CC2)CC1)C(O)c1cc(Cl)cc2cn[nH]c12 (stereo not shown)",
    "Tested System": "human TDO (TDO-expressing HEK293 cells) (Homo sapiens, UniProt P48775)",
    "IC50": "0.0001 to 10 µM"
  },
  {
    "Molecule": "OC1(c2cc(C(F)(F)F)cc3cn[nH]c23)CC2(CCC2)C1",
    "Tested System": "human TDO (TDO-expressing HEK293 cells) (Homo sapiens, UniProt P48775)",
    "IC50": "> 10 µM"
  },
  {
    "Molecule": "CC(=O)N1CCC(C(F)(F)C(O)c2cc(Cl)cc3cn[nH]c23)CC1 (stereo not shown)",
    "Tested System": "human TDO (TDO-expressing HEK293 cells) (Homo sapiens, UniProt P48775)",
    "IC50": "0.0001 to 10 µM"
  },
  {
    "Molecule": "CCC1(C(O)c2cc(Cl)cc3cn[nH]c23)CCC1 (stereo not shown)",
    "Tested System": "human TDO (TDO-expressing HEK293 cells) (Homo sapiens, UniProt P48775)",
    "IC50": "0.0001 to 10 µM"
  },
  {
    "Molecule": "OC(c1c(F)c(Cl)c(F)c2cn[nH]c12)C1(C(F)(F)F)CCC1 (stereo not shown)",
    "Tested System": "human TDO (TDO-expressing HEK293 cells) (Homo sapiens, UniProt P48775)",
    "IC50": "0.0001 to 10 µM"
  }
]

Exercise: Could you tell me which IC50 is on file for CC1(C(O)c2cc3c(c4cn[nH]c24)CCCC3)CCCCC1 (stereo not shown) ?
Solution: > 10 µM

Exercise: Using the record for Cc1ccc2cn[nH]c2c1C(O)C1(C(F)(F)F)CCCC1 (stereo not shown) , report its IC50.
Solution: 0.0001 to 10 µM

Exercise: // lookup IC50 for COc1cc(NC(=O)N2CCC(C(C)(C)C(O)c3cc(Cl)cc4cn[nH]c34)CC2)cc(OC)c1 (stereo not shown)
Solution: 0.0001 to 10 µM

Exercise: Can you share its IC50? I mean this molecule: OC(c1cc(Cl)cc2cn[nH]c12)C1(C2CCCCC2)CC1 (stereo not shown)
Solution: 0.0001 to 10 µM

Exercise: Any idea what IC50 was measured for COc1cccc(NC(=O)N2CCC(C(C)(C)C(O)c3cc(Cl)cc4cn[nH]c34)CC2)c1 (stereo not shown) ?
Solution: 0.0001 to 10 µM

The reported measurements were obtained from patent US10508085B2.
